# target.of.assay: T1, Homo sapiens factor Bb protein (human, UniProt P00751 260-764)
# T1 construct: Bought from CompTech (A155); also called complement factor Bb; human factor Bb
# measurement.notes: SPR single cycle kinetics, IgG on Protein A chip, factor Bb analyte
endpoint: Kd (nM)
Field: numeric (nM). Do not append units.

• VH7/Vκ7 (antibody, V domains shown, Redesigned variant; cloned into the appropriate expression vector (IgG4v1 and kappa were used in the first round); also called VH7/VκK7) VH: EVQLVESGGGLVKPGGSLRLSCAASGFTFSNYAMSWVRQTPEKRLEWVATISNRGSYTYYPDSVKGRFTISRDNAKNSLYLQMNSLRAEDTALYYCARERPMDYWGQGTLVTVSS VL: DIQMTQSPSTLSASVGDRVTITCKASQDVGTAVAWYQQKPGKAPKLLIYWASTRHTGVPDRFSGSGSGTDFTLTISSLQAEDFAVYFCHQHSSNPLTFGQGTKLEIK = 2.42

// switching to the query binder
Lab book: Kd of VH5/Vκ7 (antibody, V domains shown, Redesigned variant; cloned into the appropriate expression vector (IgG4v1 and kappa were used in the first round), HEK EBNA supernatant) VH: EVQLVESGGGLVKPGGSLRLSCAASGFTFSNYAMSWVRQTPEKRLEWVATISNRGSYTYYPDSVKGRFTISRDNAKNSLYLQMSSLRSEDTALYYCARERPMDYWGQGTSVTVSS VL: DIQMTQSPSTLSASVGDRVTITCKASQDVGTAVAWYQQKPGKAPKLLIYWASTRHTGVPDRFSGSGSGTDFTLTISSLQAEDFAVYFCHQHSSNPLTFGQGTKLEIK noted as 521
